B1: Pistol ribozyme (parent)
chain: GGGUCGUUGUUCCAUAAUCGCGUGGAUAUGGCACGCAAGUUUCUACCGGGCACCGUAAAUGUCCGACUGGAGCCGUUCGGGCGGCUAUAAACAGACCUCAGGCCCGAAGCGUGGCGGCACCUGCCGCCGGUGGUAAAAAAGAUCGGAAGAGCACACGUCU

Variants of: B1
Assay: aptazyme ON/OFF ratio, guanine; higher = stronger switching; co-transcriptional cleavage with and without guanine
Assign aptazyme ON/OFF ratio to each entry below.
Please reply with the number alone, leaving off any unit.

Request: # query: aptazyme ON/OFF ratio of entry U7A G9C U10G U11G C12U C13U
Response: 1.16

Request: # query: aptazyme ON/OFF ratio of entry U8A G9U U10C U11A C12G C13G
Response: 1.12

Request: # query: aptazyme ON/OFF ratio of entry U7G U8A U11G C12G C13U
Response: 1.4

Request: # query: aptazyme ON/OFF ratio of entry U7A G9U U10C C12U C13U
Response: 1.2

Request: # query: aptazyme ON/OFF ratio of entry U7A G9C C12G C13G
Response: 1.05

Request: # query: aptazyme ON/OFF ratio of entry U8A G9A U11A C12A C13G
Response: 1.25

Request: # query: aptazyme ON/OFF ratio of entry U7A U8G U10C U11A C12U C13G
Response: 0.954

Request: # query: aptazyme ON/OFF ratio of entry U8C G9C U10G C12A
Response: 1.2

Request: # query: aptazyme ON/OFF ratio of entry U7C U8A G9A U11A C12U C13U
Response: 1.27

Request: # query: aptazyme ON/OFF ratio of entry U7C U8C G9C U10G C12G C13U
Response: 1.1

Request: # query: aptazyme ON/OFF ratio of entry G9U U11A C12U C13A
Response: 1.02

Request: # query: aptazyme ON/OFF ratio of entry U7A U8G G9C U10G U11C C13A
Response: 1.1

Request: # query: aptazyme ON/OFF ratio of entry U7G U8A U10C C12A C13U
Response: 1.34

Request: # query: aptazyme ON/OFF ratio of entry U8A U10A U11A C13A
Response: 1.12

Request: # query: aptazyme ON/OFF ratio of entry U7A U8G U10G U11G C12U C13G
Response: 1.33

Request: # query: aptazyme ON/OFF ratio of entry U7A U8C G9U U10C U11A C12U C13A
Response: 1.13

Request: # query: aptazyme ON/OFF ratio of entry U8G G9A U10G U11A C12U
Response: 1.35

Request: # query: aptazyme ON/OFF ratio of entry U7A U8G G9A U10G U11C
Response: 1.01

Request: # query: aptazyme ON/OFF ratio of entry U7A U10A U11C C12G
Response: 1.1

Request: # query: aptazyme ON/OFF ratio of entry U7A U8G G9U U10G U11C C12U C13G
Response: 1.47

Request: # query: aptazyme ON/OFF ratio of entry G9C U10G U11A C12G C13A
Response: 1.11

Request: # query: aptazyme ON/OFF ratio of entry U8A U10G C12U
Response: 1.58

Request: # query: aptazyme ON/OFF ratio of entry U7C G9A U11G C13U
Response: 1.11

Request: # query: aptazyme ON/OFF ratio of entry U8G G9A U10C C12U C13A
Response: 1.14

Request: # query: aptazyme ON/OFF ratio of entry U7A U8A G9C U10A U11A C13U
Response: 1.27

Request: # query: aptazyme ON/OFF ratio of entry U7C G9A U11A C12A C13A
Response: 1.24

Request: # query: aptazyme ON/OFF ratio of entry U7C U8C G9C U10G U11G C12G
Response: 1.14

Request: # query: aptazyme ON/OFF ratio of entry U7A U8G G9U U11C C13A
Response: 1.26

Request: # query: aptazyme ON/OFF ratio of entry U7C U8G G9A U10G U11A C12U C13G
Response: 1.36

Request: # query: aptazyme ON/OFF ratio of entry U7G G9A U11A C12U
Response: 1.41

Request: # query: aptazyme ON/OFF ratio of entry U8G G9U U10C U11G C12G C13G
Response: 1.14

Request: # query: aptazyme ON/OFF ratio of entry U7A U8C G9A U10A U11A C13G
Response: 1.12

Request: # query: aptazyme ON/OFF ratio of entry U7A U8A G9A U11G C13G
Response: 1.14

Request: # query: aptazyme ON/OFF ratio of entry G9U U10C U11C C12A C13U
Response: 1.2

Request: # query: aptazyme ON/OFF ratio of entry U8A U10A C12G
Response: 1.16

Request: # query: aptazyme ON/OFF ratio of entry U7G U10G U11C C12G
Response: 1.25

Request: # query: aptazyme ON/OFF ratio of entry U8G G9U U10G U11A C12U C13G
Response: 1.05

Request: # query: aptazyme ON/OFF ratio of entry U8C G9A U10A U11G C12A
Response: 1.04

Request: # query: aptazyme ON/OFF ratio of entry U7A G9U U10A U11C
Response: 1.02

Request: # query: aptazyme ON/OFF ratio of entry U7C U8A G9A U10G C13U
Response: 1.39

Request: # query: aptazyme ON/OFF ratio of entry U7G U8C G9U U11C C12U C13U
Response: 1.49

Request: # query: aptazyme ON/OFF ratio of entry U7A U8C G9A U10C C12G
Response: 1.29

Request: # query: aptazyme ON/OFF ratio of entry U7C U8A G9C U10A U11C C12A C13A
Response: 1.19

Request: # query: aptazyme ON/OFF ratio of entry U8G G9U U10A C12A C13G
Response: 1.18

Request: # query: aptazyme ON/OFF ratio of entry U7C U8A G9C U10A U11C C13G
Response: 1.05

Request: # query: aptazyme ON/OFF ratio of entry U7A U8G G9A U10A U11C C12U C13U
Response: 1.26

Request: # query: aptazyme ON/OFF ratio of entry U7G U8A G9C U10A C13A
Response: 1.03

Request: # query: aptazyme ON/OFF ratio of entry U8C G9A U10C U11A C12G C13A
Response: 1.23

Request: # query: aptazyme ON/OFF ratio of entry U7A U8A G9A U10A C12A C13A
Response: 1.11

Request: # query: aptazyme ON/OFF ratio of entry U7C U8C G9C U10C U11G C12G C13G
Response: 1.12

Request: # query: aptazyme ON/OFF ratio of entry U7C U8A U11G C13G
Response: 1.06

Request: # query: aptazyme ON/OFF ratio of entry U8G G9A C12A
Response: 1.61

Request: # query: aptazyme ON/OFF ratio of entry U7G U8G G9C U10A C12U
Response: 1.02

Request: # query: aptazyme ON/OFF ratio of entry U7G U8A G9A U10G C12U C13G
Response: 1.35

Request: # query: aptazyme ON/OFF ratio of entry U7A U8C G9U U10A U11G
Response: 1.31

Request: # query: aptazyme ON/OFF ratio of entry U7G U8G C12A C13G
Response: 1.22

Request: # query: aptazyme ON/OFF ratio of entry U7A U8A G9U U10C C12G C13A
Response: 1.31

Request: # query: aptazyme ON/OFF ratio of entry U7C U8A U10C C12U
Response: 3.73

Request: # query: aptazyme ON/OFF ratio of entry U8A G9C U10A U11A C13G
Response: 1.08

Request: # query: aptazyme ON/OFF ratio of entry U8C G9U U11G C13G
Response: 1.02

Request: # query: aptazyme ON/OFF ratio of entry U7G U8A U10G C12G
Response: 1.13

Request: # query: aptazyme ON/OFF ratio of entry U7A U8A U10G U11A C13G
Response: 1.16

Request: # query: aptazyme ON/OFF ratio of entry U11G C12A C13G
Response: 1.22

Request: # query: aptazyme ON/OFF ratio of entry U7C G9C U10C U11C C12G C13G
Response: 1.07

Request: # query: aptazyme ON/OFF ratio of entry U8G G9U U10C U11A C12G
Response: 1.12

Request: # query: aptazyme ON/OFF ratio of entry U7G U8G U10G C12A
Response: 1.31

Request: # query: aptazyme ON/OFF ratio of entry U7A G9U U10A U11G C12U C13G
Response: 1.13

Request: # query: aptazyme ON/OFF ratio of entry U8C G9C C12A C13G
Response: 1.1

Request: # query: aptazyme ON/OFF ratio of entry U7G U8C G9U U11G C12A C13G
Response: 1.35

Request: # query: aptazyme ON/OFF ratio of entry U7A U8C G9A U11G C12A C13G
Response: 1.21

Request: # query: aptazyme ON/OFF ratio of entry U7A U8G G9A U10C U11G C12G C13U
Response: 1.1

Request: # query: aptazyme ON/OFF ratio of entry U7C U8C G9C U10C U11C C13A
Response: 1.06

Request: # query: aptazyme ON/OFF ratio of entry U7G U8G G9U U10G U11G C12A
Response: 1.13

Request: # query: aptazyme ON/OFF ratio of entry U7A U8G G9A U10C U11C C12A C13U
Response: 1.04

Request: # query: aptazyme ON/OFF ratio of entry U7G U8C G9A U10G U11C C12G
Response: 1.2

Request: # query: aptazyme ON/OFF ratio of entry U7G G9C U10G C12U
Response: 1.38

Request: # query: aptazyme ON/OFF ratio of entry U8A U10G U11G C12A C13A
Response: 1.18

Request: # query: aptazyme ON/OFF ratio of entry U7G U10G U11A C12A
Response: 1.14

Request: # query: aptazyme ON/OFF ratio of entry U7A U8C G9A U10C C12U C13U
Response: 1.26

Request: # query: aptazyme ON/OFF ratio of entry U7C U8C G9A U10C U11C C12A C13A
Response: 1.39

Request: # query: aptazyme ON/OFF ratio of entry U8A U10C U11C
Response: 1.01

Request: # query: aptazyme ON/OFF ratio of entry U7G U8A G9U U10C U11A C12G C13U
Response: 1.09

Request: # query: aptazyme ON/OFF ratio of entry U7C U8A G9U U10A U11G
Response: 1.36

Request: # query: aptazyme ON/OFF ratio of entry U7A G9C U10C C12G C13A
Response: 1.03

Request: # query: aptazyme ON/OFF ratio of entry U7G U8G G9C U10C U11A C12U C13U
Response: 1.23

Request: # query: aptazyme ON/OFF ratio of entry U7C U8C G9A U10A U11C C12G C13A
Response: 1.4

Request: # query: aptazyme ON/OFF ratio of entry U7G U8G G9U U10G U11A C12G C13U
Response: 1.14

Request: # query: aptazyme ON/OFF ratio of entry U7A U8A G9C U10A U11A C12U C13A
Response: 1.2

Request: # query: aptazyme ON/OFF ratio of entry U7G U8A U10G U11C C12A C13A
Response: 1.43

Request: # query: aptazyme ON/OFF ratio of entry U8A U10C U11G C12G
Response: 1.23

Request: # query: aptazyme ON/OFF ratio of entry U7C U8A G9C U10A U11C C12U C13U
Response: 1.12
